Biological target: T1, His-tagged, full-length PCSK9 (human, UniProt A8T644 31-152; Q8NBP7 153-692)
T1 construct: Target protein of the PCSK9/EGF(A) TR-FRET assay (10 nM); also called His-PCSK9; proprotein convertase subtilisin/kexin type 9
T1 sequence (A8T644 31-152 limits assumed, chain 1 of 2): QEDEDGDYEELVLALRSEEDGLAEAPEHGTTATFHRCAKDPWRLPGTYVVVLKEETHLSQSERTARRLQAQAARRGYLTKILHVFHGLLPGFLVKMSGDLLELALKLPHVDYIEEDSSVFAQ
T1 sequence (A8T644 other isoform, or with tags, fused parts or gaps limits assumed, chain 2 of 2): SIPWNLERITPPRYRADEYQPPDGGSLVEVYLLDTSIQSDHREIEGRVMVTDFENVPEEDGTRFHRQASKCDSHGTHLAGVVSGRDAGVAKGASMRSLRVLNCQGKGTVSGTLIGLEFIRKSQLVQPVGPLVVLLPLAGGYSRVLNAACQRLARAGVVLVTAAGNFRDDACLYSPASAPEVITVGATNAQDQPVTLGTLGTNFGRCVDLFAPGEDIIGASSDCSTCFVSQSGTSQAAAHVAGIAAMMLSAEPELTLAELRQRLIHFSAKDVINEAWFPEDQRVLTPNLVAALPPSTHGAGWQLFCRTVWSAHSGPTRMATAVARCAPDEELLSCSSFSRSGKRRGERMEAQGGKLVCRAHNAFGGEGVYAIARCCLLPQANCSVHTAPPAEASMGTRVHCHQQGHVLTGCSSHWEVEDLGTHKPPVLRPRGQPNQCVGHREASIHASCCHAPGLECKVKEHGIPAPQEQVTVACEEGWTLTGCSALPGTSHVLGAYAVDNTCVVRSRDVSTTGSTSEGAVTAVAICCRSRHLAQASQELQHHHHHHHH
Test: TR-FRET competition; competitor EGF(A)-Fc on His-PCSK9
pIC50: −log10 of the molar value. Bridge positions count the residues as written; N and C are the ends. Square brackets hold non-standard residues; d marks the D form.
value.type: pIC50

Provide only the value of recorded pIC50 for Ac-CR[dL]PWNLQRIGLPC-NH2 (disulfide 1-14; SMILES CC[C@H](C)[C@@H]1NC(=O)[C@H](CCCNC(=N)N)NC(=O)[C@H](CCC(N)=O)NC(=O)[C@H](CC(C)C)NC(=O)[C@H](CC(N)=O)NC(=O)[C@H](Cc2c[nH]c3ccccc23)NC(=O)[C@@H]2CCCN2C(=O)[C@@H](CC(C)C)NC(=O)[C@H](CCCNC(=N)N)NC(=O)[C@@H](NC(C)=O)CSSC[C@@H](C(N)=O)NC(=O)[C@@H]2CCCN2C(=O)[C@H](CC(C)C)NC(=O)CNC1=O) [Compound 108]
< 4.30
